Test: soluble on expression in E. coli; label from the status in PepcDB or PDB records
measured property: soluble on expression in E. coli

// below: answered sequences
| item sequence | data value |
| --- | --- |
| MQGQGDLFESTDWQEVRQGKLFYQPNFLSQQEADTYFSTLMSTLPWQQERITIFGKSVLQPRLQTWHGDAPYTYSGLTMAPHPWTSELSSLKARCESLANTPFNSVLANLYRDGQDSMGWHQDNEPELGRNPVIASLNLGDTRRFVLRNLHCKTQIEYELGHGALLIMAGELQHHWRHCVPKTAKPKGERINLTFRHILNYLEHHHHHH | soluble |
| MLVSEMHGEVEAVKVGTEVQGRVLHWVYLYYYRNLLFDAGCPNTAQEVFEHFKGREIKAVLITHYHEDHIGAVNLFKEITDVYVPEESLEILRNPPDIPKYRKIGWGQPEKIEGVKVAKEVMKFDDVEVRMIKTPGHSFDHVSYLVDDKLFCGDLVINTAQMVCMREENLLKTIESIEKVLKYDFNYAYTGVGVASRDEVVEYLNYLKGLKEKAEMLYAEGKTIDEIVAACFPNPSQKAILMEFVSEKEWARENMVKSLLGLPRE | not soluble |
| MSWIERIKSNITPTRKASIPEGVWTKCDSCGQVLYRAELERNLEVCPKCDHHMRMTARNRLHSLLDEGSLVELGSELEPKDVLKFRDSKKYKDRLASAQKETGEKDALVVMKGTLYGMPVVAAAFEFAFMGGSMGSVVGARFVRAVEQALEDNCPLICFSASGGARMQEALMSLMQMAKTSAALAKMQERGLPYISVLTDPTMGGVSASFAMLGDLNIAEPKALIGFAGPRVIEQTVREKLPPGFQRSEFLIEKGAIDMIVRRPEMRLKLASILAKLMNLPAPNPEAPREGVVVPPVPDQEPEA | soluble |
| MSQPAYRLFNVELKRREQLSPALTRFVFGGPEVAEMKTLAADQRIKIFFPDASGQPPSLPGGSEWYQAYRSVEPARRPPMRTYTIRALRAEQEEVDVEFVLHGENGPASAWATHARIGDRLQLAAPNRQYGDDPGGYEWKPPAGVRHILLIADETALPAVAGILEELAGETEPPVVEAFLEVPGEADILDLPAIPAARLHWLPRHQAGIHSRNGERMIEAARQARLPEREVAGGAAQELEDIDIDEEILWELASPESGSFYAWVAGESAAVMAIRRYLVQERGIDKRHLTLMGYWRLGKVFD | not soluble |

QUERY: Query: soluble on expression in E. coli; subject: MTSPVPRLIEQFERGLDAPICLTWELTYACNLACVHCLSSSGKRDPGELSTRQCKDIIDELERMQVFYVNIGGGEPTVRPDFWELVDYATAHHVGVKFSTNGVRITPEVATRLAATDYVDVQISLDGATAEVNDAIRGTGSFDMAVRALQNLAAAGFAGVKISVVITRRNVAQLDEFATLASRYGATLRITRLRPSGRGTDVWADLHPTADQQVQLYDWLVSKGERVLTGDSFFHLAPLGQSGALAGLNMCGAGRVVCLIDPVGDVYACPFAIHDHFLAGNVLSDGGFQNVWKNSSLFRELREPQSAGACGSCGHYDSCRGGCMAAKFFTGLPLDGPDPECVQGHSEPALARERHLPRPRADHSRGRRVSKPVPLTLSMRPPKRPCNESPV
RESULT: not soluble

QUERY: Please do the same for MKRTKKEFTPYNEYHDRPFELKWATAFALGELQEGIEASDEYSKRAFERLPQQTTEEIEEYLEQSLKNNQVLEIQLNTLDDFGRVQPPIVGVFEGMSSMEYVKVGHTHILFEEIRHIKSHEFTKWSSLD as well.
RESULT: not soluble

Reference source: the DeepSol protein solubility set
